Test system: human breast tumor MCF-7 cell line
run-description: MTT antiproliferative assay on human MCF-7 cell line
Assay type: cell-based
run-conditions: Homo sapiens, MCF7; MTT inhibition of proliferation, mean of triplicate determinations; read-out: IC50
measurement-type: IC50 (µM)
Give the value in µM but do not write µM after it.

query-smiles: CCC(Cc1ccc(OC)cc1)=C(c1ccc(NCCOC)cc1)c1ccc(OC)cc1
IC50 (µM): 51.8
--
query-smiles: CCC(Cc1ccccc1)=C(c1ccccc1)c1ccc(NCCOC)cc1
IC50 (µM): 33.7
--
query-smiles: CCC(Cc1ccccc1)=C(c1ccc(NCCOC)cc1)c1ccc(OC)cc1
IC50 (µM): 34.4
--
query-smiles: CCCOCCCNc1ccc(C(=C(CC)Cc2ccccc2)c2ccccc2)cc1
IC50 (µM): 23.3
--
query-smiles: CCC(Cc1ccccc1)=C(c1ccccc1)c1ccc(OCCCO)cc1
IC50 (µM): 20.2

Task: # return recorded IC50 for input CCC(Cc1ccccc1)=C(c1ccccc1)c1ccc(NCCO)cc1
Result: 39.5

Task: # return recorded IC50 for input CCC(Cc1ccccc1)=C(c1ccccc1)c1ccc(NCCCOC)cc1
Result: 35.4

Task: # return recorded IC50 for input CCC(Cc1ccccc1)=C(c1ccccc1)c1ccc(NCCN(C)C)cc1
Result: 13.7

Task: # return recorded IC50 for input CCC(Cc1ccccc1)=C(c1ccccc1)c1ccc(NCCCO)cc1
Result: 34

Task: # return recorded IC50 for input CCCOCCNc1ccc(C(=C(CC)Cc2ccccc2)c2ccccc2)cc1
Result: 46.9

Task: # return recorded IC50 for input CCC(Cc1ccccc1)=C(c1ccccc1)c1ccc(OCCO)cc1
Result: 24.9

====

Measured IC50 accompanies every entry in the list below.
System: human breast tumor MCF-7 cell line
run-description: MTT antiproliferative assay on human MCF-7 cell line
Type: cell-based
run-conditions: Homo sapiens, MCF7; MTT inhibition of proliferation, mean of triplicate determinations; read-out: IC50 Range
Source text: EXAMPLE 14—Determination of the antiproliferative effects on human MCF-7 cell lines. MTT is a yellow tetrazolium salt which is taken up only by metabolically active cells and subsequently cleaved by mitochondrial dehydrogenases to yield a purple crystalline formazan dye. On solubilisation this purple color may be read spectrophotometrically at 570 nm. The absorbance measured at this wavelength is directly proportional to the amount of viable cells present. […]

Check out these entries, answers already filled in.
compound: CCC(Cc1ccccc1)=C(c1ccc(O)cc1)c1ccc(OCCN2CCCC2)cc1
observed-measurement: 0.01 to 0.1 µM
//
compound: CCC(Cc1ccccc1)=C(c1ccc(O)cc1)c1ccc(OCCN(C)C)cc1
observed-measurement: 0.01 to 0.1 µM
//
compound: CC/C(=C(\Cc1ccccc1)c1ccc(OCCN(C)C)cc1)c1ccccc1
observed-measurement: 20 to 25 µM
//
compound: CC/C(=C(/Cc1ccc(OCCN(C)C)cc1)c1ccccc1)c1ccccc1
observed-measurement: 25 to 30 µM

Task: # return recorded IC50 for input CCC(Cc1ccccc1)=C(c1ccccc1)c1ccc(OCCN(C)C)cc1 (racemic)
Result: 10 to 15 µM

Task: # return recorded IC50 for input CC/C(Cc1ccccc1OC)=C(/c1ccc(OCCN2CCCC2)cc1)c1ccc(OC(=O)C(C)(C)C)cc1
Result: 1 to 10 µM

Task: # return recorded IC50 for input CC/C(=C(\Cc1ccccc1)c1ccc(OCCN2CCCC2)cc1)c1ccccc1
Result: 10 to 15 µM

Task: # return recorded IC50 for input CCC(Cc1ccccc1)=C(c1ccccc1)c1ccc(OCCN(CC)CC)cc1
Result: 10 to 15 µM

Task: # return recorded IC50 for input CC/C(=C(\Cc1ccccc1)c1ccc(OCCN2CCOCC2)cc1)c1ccccc1
Result: 1 to 5 µM

Task: # return recorded IC50 for input CC/C(=C(\Cc1ccccc1)c1ccc(OCCN2CCCCC2)cc1)c1ccccc1
Result: 70 to 80 µM

Task: # return recorded IC50 for input CCC(=C(Cc1ccccc1)c1ccccc1)c1ccc(OCCN2CCCCC2)cc1
Result: 15 to 20 µM

Task: # return recorded IC50 for input CC/C(=C(\Cc1ccccc1)c1ccccc1)c1ccc(OCCN(C)C)cc1
Result: 115 to 120 µM

Task: # return recorded IC50 for input CCC(=C(Cc1ccc(OCCN2CCOCC2)cc1)c1ccccc1)c1ccccc1
Result: 15 to 20 µM

====

System: human breast tumor MCF-7 cell line
run-description: MTT antiproliferative assay on human MCF-7 cell line
Format: cell-based
run-conditions: Homo sapiens, MCF7; MTT inhibition of proliferation, mean of triplicate determinations; read-out: IC50
Measured IC50 accompanies every entry in the list below.
Give the value in µM but do not write µM after it.

Check out these entries, answers already filled in.
query-smiles: CCC(Cc1ccc(OC)cc1)=C(c1ccccc1)c1ccc(NCCOC)cc1
IC50 [µM]: 49.5

query-smiles: CCOCCCNc1ccc(/C(=C(/CC)Cc2ccccc2)c2ccccc2)cc1
IC50 [µM]: 14.1

query-smiles: CCOCCNc1ccc(C(=C(CC)Cc2ccccc2)c2ccccc2)cc1
IC50 [µM]: 36.8

query-smiles: CCC(Cc1ccccc1)=C(c1ccccc1)c1ccc(OCCOC)cc1
IC50 [µM]: 41.7

Attention now turns to another entry.
Task: # return recorded IC50 for input CCC(Cc1ccc(O)cc1)=C(c1ccccc1)c1ccc(NCCOC)cc1
Result: 32.4
